Consider the following molecules and their measured pest or weed control at 100 ppm readings.
- Tested on: Septoria tritici
- Assay overview: Leaf Blotch of Wheat, 1-day protectant whole plant test
- Type: in vivo
- Test conditions: Zymoseptoria tritici, 24 h; 100 ppm spray, wheat plants (variety Monon), one-day protectant test, vs untreated inoculated plants; read-out: SEPTTR percent control

molecule="CC(C)OC(=O)N[C@H](CS(=O)(=O)C(C)c1ccc(OC(F)(F)F)cc1)C(C)C (stereo partly shown) [Compound 4]" result_value="< 20%"
molecule="CCC(c1ccc(Cl)cc1)S(=O)(=O)C[C@@H](NC(=O)OC(C)C)C(C)C (stereo partly shown) [Compound 23]" result_value="50 to 89%"
molecule="C#Cc1ccc(C(C)S(=O)(=O)C[C@@H](NC(=O)OC(C)C)C(C)C)cc1 (stereo partly shown) [Compound 11]" result_value="50 to 89%"

Now examine the next entry.
Measured pest or weed control at 100 ppm of CC(C)[C@@H](CS(=O)(=O)C(C)c1ccc(Br)cc1)NC(=O)OC(C)(C)C (stereo partly shown) [Compound 20] : 20 to 49%
